Value source: PubChem BioAssay (Tox21)

Test Protocol: qHTS RealTime-Glo MT Cell Viability Assay in HEK293 cells - 8 hour (AID 1224887); also: top concentration of the series differs between compounds; nearly all actives have a fitted effect of over 50% in size
Assay Context: RealTime-Glo luminescence; series mostly up to 76.8 µM
Results filed as inconclusive are left out. Activity calls are given as the source filed them. Calls follow the shape of the dose curve; as a rule, active = well fitted cell-killing curve with a large enough effect in the repeat runs; inconclusive = weak or mixed curves, or effect the other way; inactive = flat fitted curve, though single readings scatter.
Measure: Potency

Reference set (4 entries):
CC(C)=CC1C(C(=O)OCc2coc(Cc3ccccc3)c2)C1(C)C (configuration not stated) :: inactive
O=Cc1ccco1 :: inactive
O=C(Nc1ccc(Br)cc1)c1cc(Br)cc(Br)c1O :: inactive
O=c1oc2ccccc2c(O)c1C(CC(O)c1ccc(-c2ccc(Br)cc2)cc1)c1ccccc1 (configuration not stated) :: inactive

Find the recorded Potency belonging to "CCN(CC)C(=O)SCc1ccc(Cl)cc1" and report it.
inactive

Now consider "Brc1ccc(Oc2cc(Br)c(Br)cc2Br)c(Br)c1" .
inactive

Now consider "Nc1ccc(-c2ccccc2)cc1" .
inactive

Now consider "CCOc1cc(C=O)ccc1O" .
inactive

Now consider COc1ccc(C(CN(C)C)C2(O)CCCCC2)cc1 (configuration not stated) .
inactive

Now consider "COP(=O)(OC)OC" .
inactive

Now consider "CCN(CC)C(=O)/C(Cl)=C(\C)OP(=O)(OC)OC" .
inactive

Now consider "NCc1cccnc1" .
inactive

Now consider "NNC(=S)NN" .
inactive

Now consider "O=P(Oc1ccccc1)(Oc1ccccc1)Oc1ccccc1" .
inactive

Now consider "CCCCCCCCOC(=O)c1ccccc1C(=O)OCCCCCCCC" .
inactive

Now consider "c1nc[nH]n1" .
inactive

Now consider CCC(C)c1ccc(O)cc1 (configuration not stated) .
inactive

Now consider "CCCCOCCOP(=O)(OCCOCCCC)OCCOCCCC" .
inactive

Now consider "Clc1nc(Cl)nc(Cl)n1" .
inactive

Now consider "CCC(CC)Nc1c([N+](=O)[O-])cc(C)c(C)c1[N+](=O)[O-]" .
inactive
